PROCEDURE_TEXT: Cytotoxicity against mouse RAW264.7 cells assessed as survival rate at 20 uM incubated for 24 hrs by CCK-8 assay relative to control (reference value: 100 %)
Type: toxicity, cell-based
CONDITION_DETAILS: read-out: Survival
METRIC: viability at 24 h, 20 µM
A complete answer gives the number followed by the unit.

Example entries and their recorded answers appear below.
### Prompt // query viability at 24 h, 20 µM value for entry COc1cc(C[C@H](C(=O)NCc2cc(C)ccn2)[C@@H](Cc2cc(OC)c(O)c(OC)c2)C(=O)NCc2cc(C)ccn2)cc(OC)c1O
### Response 83%

### Prompt // query viability at 24 h, 20 µM value for entry COc1cc(/C=C/C(=O)OC[C@H](Cc2cc(OC)c(O)c(OC)c2)[C@@H](COC(=O)/C=C/c2ccc(O)c(OC)c2)Cc2cc(OC)c(O)c(OC)c2)ccc1O
### Response 82.2%

### Prompt // query viability at 24 h, 20 µM value for entry COc1cc(C[C@H](C(=O)NCc2ccccn2)[C@@H](Cc2cc(OC)c(O)c(OC)c2)C(=O)NCc2ccccn2)cc(OC)c1O
### Response 92.2%

### Prompt // query viability at 24 h, 20 µM value for entry COc1cc(C[C@H](C(=O)NCc2ccc(F)cc2F)[C@@H](Cc2cc(OC)c(O)c(OC)c2)C(=O)NCc2ccc(F)cc2F)cc(OC)c1O
### Response 97.5%

### Prompt // query viability at 24 h, 20 µM value for entry C[C@@H]1C[C@H]2[C@@H]3CCC4=CC(=O)C=C[C@]4(C)[C@@]3(F)[C@@H](O)C[C@]2(C)[C@@]1(O)C(=O)CO [DEXAMETHASONE]
### Response 94.8%

Moving on to another compound below.
### Prompt // query viability at 24 h, 20 µM value for entry COc1cc(C[C@H](C(=O)NCc2cccc(C)n2)[C@@H](Cc2cc(OC)c(O)c(OC)c2)C(=O)NCc2cccc(C)n2)cc(OC)c1O
### Response 93.3%
